# System: U2OS
# assay-notes: Multiplex assay against U2OS
# Assay type: toxicity, cell-based
# measurement-setup: human, 24 h, 10 µM, compound concentration 10 uM, replicate 1
Assign class 1 whenever Population Mitotic Cells (%) does not fall below 50%; assign class 0 whenever it does.

>>> df
                                   compound  label_value
0  CC(C)NC(=O)N1CC[C@H](NC2=Nc3cc(F)ccc3N(CC(F)F)c3ccc(Cl)cc32)C1      class 0
1  CNC(=O)Nc1ccc(-c2nc(N3CC4CCC(C3)O4)c3cnn(C4CCC5(CC4)OCCO5)c3n2)cc1      class 0
2  Cc1nc(N2CC[C@H](O)C2)ncc1-c1cc(C(F)(F)F)cc2[nH]ncc12      class 1
3  CC(C)c1noc(N2CCC(COc3ccc(-c4ccc(S(C)(=O)=O)cc4)nc3)CC2)n1      class 1
4  C=CC(=O)Nc1ccc2[nH]c(=O)n(C3CCN(Cc4ccc(-c5nc6cc[nH]c(=O)c6cc5-c5ccccc5)cc4)CC3)c2c1      class 0
5  Cc1ccccc1C(c1ccccc1C)N1C2CCC1CC(O)(c1ccccc1)C2 (stereo not drawn)      class 1
6  C=CC(=O)Nc1cccc(Oc2nc(Nc3ccc(N4CCN(C)CC4)cc3OC)ncc2Cl)c1      class 0
7  C=CC(=O)Nc1cccc(Sc2nc(Nc3ccc(N4CCN(C)CC4)cc3)ncc2Cl)c1      class 1
